- SYSTEM TESTED: human TfR ECD (human)
- Sequence (chain, as listed by the source): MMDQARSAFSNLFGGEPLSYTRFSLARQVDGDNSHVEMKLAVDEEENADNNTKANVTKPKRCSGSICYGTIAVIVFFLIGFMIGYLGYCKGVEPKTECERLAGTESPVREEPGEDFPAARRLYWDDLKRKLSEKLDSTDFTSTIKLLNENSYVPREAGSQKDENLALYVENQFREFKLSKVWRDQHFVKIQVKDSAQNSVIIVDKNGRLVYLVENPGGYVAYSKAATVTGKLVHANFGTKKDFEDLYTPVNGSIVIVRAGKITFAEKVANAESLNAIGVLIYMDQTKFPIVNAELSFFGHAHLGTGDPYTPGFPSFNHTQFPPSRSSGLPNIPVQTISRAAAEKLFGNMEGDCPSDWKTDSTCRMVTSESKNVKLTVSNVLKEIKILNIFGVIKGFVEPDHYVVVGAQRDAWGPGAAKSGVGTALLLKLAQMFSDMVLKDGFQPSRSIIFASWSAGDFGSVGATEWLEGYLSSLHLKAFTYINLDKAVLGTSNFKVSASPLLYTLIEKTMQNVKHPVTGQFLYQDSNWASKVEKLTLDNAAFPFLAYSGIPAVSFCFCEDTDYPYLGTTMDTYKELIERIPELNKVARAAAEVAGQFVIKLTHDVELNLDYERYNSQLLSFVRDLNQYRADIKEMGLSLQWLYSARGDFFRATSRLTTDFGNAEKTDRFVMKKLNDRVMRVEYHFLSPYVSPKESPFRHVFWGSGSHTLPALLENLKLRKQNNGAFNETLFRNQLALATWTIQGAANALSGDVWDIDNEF
- ASSAY PROCEDURE: ELISA
Form field: EC50 (one value per entry).
Form entry: value (ng/mL) — number only.

hu15G11.v5 HC Y27A (antibody, V domains shown) VH: EVQLVQSGAEVKKPGASVKVSCKASGATFTSYWMHWVRQAPGQRLEWIGEINPTNGRTNYIEKFKSRATLTVDKSASTAYMELSSLRSEDTAVYYCARGTRAYHYWGQGTMVTVSS VL: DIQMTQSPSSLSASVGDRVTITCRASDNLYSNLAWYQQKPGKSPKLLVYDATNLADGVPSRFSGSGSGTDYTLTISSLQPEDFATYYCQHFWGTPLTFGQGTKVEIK; 21.1
hu15G11.v5 HC Y32A (antibody, V domains shown) VH: EVQLVQSGAEVKKPGASVKVSCKASGYTFTSAWMHWVRQAPGQRLEWIGEINPTNGRTNYIEKFKSRATLTVDKSASTAYMELSSLRSEDTAVYYCARGTRAYHYWGQGTMVTVSS VL: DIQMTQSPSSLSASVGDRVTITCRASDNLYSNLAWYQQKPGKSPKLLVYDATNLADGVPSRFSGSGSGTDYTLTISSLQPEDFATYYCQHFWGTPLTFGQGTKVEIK; 0.4
hu15G11.v5 HC T30A (antibody, V domains shown) VH: EVQLVQSGAEVKKPGASVKVSCKASGYTFASYWMHWVRQAPGQRLEWIGEINPTNGRTNYIEKFKSRATLTVDKSASTAYMELSSLRSEDTAVYYCARGTRAYHYWGQGTMVTVSS VL: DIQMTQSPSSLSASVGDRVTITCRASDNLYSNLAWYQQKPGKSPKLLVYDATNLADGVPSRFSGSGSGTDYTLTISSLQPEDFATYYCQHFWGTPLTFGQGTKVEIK; 0.4
hu15G11.v5 HC W33A (antibody, V domains shown) VH: EVQLVQSGAEVKKPGASVKVSCKASGYTFTSYAMHWVRQAPGQRLEWIGEINPTNGRTNYIEKFKSRATLTVDKSASTAYMELSSLRSEDTAVYYCARGTRAYHYWGQGTMVTVSS VL: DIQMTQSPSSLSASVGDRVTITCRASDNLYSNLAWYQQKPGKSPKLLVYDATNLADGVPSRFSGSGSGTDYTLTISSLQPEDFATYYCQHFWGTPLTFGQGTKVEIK; 59.6

We now examine a further binder.
Tell us which EC50 value is on record for hu15G11.v5 LC S26A (antibody, V domains shown) VH: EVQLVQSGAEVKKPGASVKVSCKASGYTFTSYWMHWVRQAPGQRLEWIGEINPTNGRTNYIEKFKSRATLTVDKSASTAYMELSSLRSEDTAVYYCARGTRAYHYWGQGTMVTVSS VL: DIQMTQSPSSLSASVGDRVTITCRAADNLYSNLAWYQQKPGKSPKLLVYDATNLADGVPSRFSGSGSGTDYTLTISSLQPEDFATYYCQHFWGTPLTFGQGTKVEIK 0.2

src = patent US11008403
